Experiment: alpha-DG glycosylation enhancers, retest, confirmation, single concentration, Pro5-aDG cells (AID 651671);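 further: cells exposed to compound for two days before detection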
Conditions: IIH6 AlphaLISA, screened at 10 µM (by protocol), scaled to LARGE-overexpressing B10 cells as 100%
The list shows a part of the results. The source made the active and inactive calls.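 How the source made its calls: active means activation of at least 7% in one or more replicates; inactive means the rest.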
Possible outcomes: true (1) for active, false (0) for inactive

O=C(c1ccc(N2CCCC2=O)cc1)N1CCN(c2ccc(C(F)(F)F)cc2[N+](=O)[O-])CC1; false (0)
COc1ccccc1C1SCCN1C(=O)c1ccc([N+](=O)[O-])cc1 (configuration not stated); false (0)
CC(C)c1cc(Cn2c3ccccc3c(=O)n2C(C)Cn2cc(C3CC3)nn2)on1 (configuration not stated); false (0)
CC(C)C(=O)NCC(c1cccs1)S(=O)(=O)c1ccc(F)cc1 (configuration not stated); false (0)
COc1cccc(C(=O)Nc2nnc(S(=O)(=O)N3CCCCC3)s2)c1; false (0)
CCOc1ccc(OCC(=O)Nc2c3c(nn2C(C)(C)C)CS(=O)(=O)C3)cc1; false (0)
COc1ccccc1N1CCN(C(=O)c2cc(-c3ccc(Br)cc3)on2)CC1; false (0)
O=c1ccc2cc(S(=O)(=O)N3CCN(c4ccccc4)CC3)ccc2o1; false (0)
CCc1ccccc1S(=O)(=O)Cc1ccc(C(=O)NCCc2ccccc2)o1; false (0)
OC[C@@H]1CN(Cc2ccc(-c3ccccc3)cc2)C[C@H](n2cnc3c(NC4CCCC4)ncnc32)O1; false (0)
COc1cc(CNCCN(C)C)ccc1OCc1c(F)cccc1Cl; true (1)
CN(C)CCCNC(=O)/C=C/c1ccc(OCc2c(F)cccc2Cl)cc1; true (1)
Cc1ccc(NC(=O)c2ccc(Oc3ncccn3)cc2)cc1; false (0)
COc1ccc(NC(=O)CSc2nnc(-c3ccccc3F)n2C2CC2)cc1S(N)(=O)=O; false (0)
CCCn1c(=N)n(CC(=O)c2ccc(Cl)c(Cl)c2)c2ccccc21; true (1)
Cc1ccc(NC(=O)CN(C)CC(=O)Nc2cccc(F)c2)cc1[N+](=O)[O-]; false (0)
O=C(NC(c1ccc(-c2ccccc2)cc1)c1cnccn1)C1CCN(CCOc2ccc(Cl)cc2Cl)CC1 (configuration not stated); false (0)
